# TGT: Voltage-gated potassium channel subunit beta-2 (Rattus norvegicus) (UniProt P62483)
# Sequence (P62483 whole entry, looked up): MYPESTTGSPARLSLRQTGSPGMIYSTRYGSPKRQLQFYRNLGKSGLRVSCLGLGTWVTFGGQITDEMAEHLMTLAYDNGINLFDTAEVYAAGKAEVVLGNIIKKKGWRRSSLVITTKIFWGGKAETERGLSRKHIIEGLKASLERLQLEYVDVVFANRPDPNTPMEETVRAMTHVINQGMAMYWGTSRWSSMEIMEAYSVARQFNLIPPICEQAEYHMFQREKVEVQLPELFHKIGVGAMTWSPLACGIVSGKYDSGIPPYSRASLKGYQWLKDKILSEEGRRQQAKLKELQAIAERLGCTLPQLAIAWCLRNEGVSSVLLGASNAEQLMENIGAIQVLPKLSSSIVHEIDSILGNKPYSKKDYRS
# ASSAY DETAILS: inhibitors of rat Kvbeta2 reductase activity – biochemical, NADPH fluorescence, primary screen (AID 622);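 also: slope of raw intensity against log time taken from 70 to 1610 s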
# ASSAY CONDITIONS: recombinant KvBeta, 4-cyanobenzaldehyde reduction, at 10 µM, active compounds read high

COMPOUND | fluorescence slope
CCOc1ccc(C(=O)N(CN2CCCC2=O)c2ccc(C)cc2)cc1 | -0.53
Cc1ccc(-c2cc(C(F)(F)F)n3ncc(C(=O)O)c3n2)cc1 | -0.524
CN(C)CCCN1c2ccccc2CCc2ccccc21 | -0.545
CCOc1ccc(C(=O)N2CCC(C(=O)c3ccc4c(c3)OCCO4)CC2)cc1 | -0.511
COc1ccc(C(=O)Nn2c(SCC(=O)NCC3CCCO3)nc3ccccc3c2=O)cc1 (stereo unspecified) | -0.511
O=C(CCNC(=O)Cn1ccc2ccccc2c1=O)NCCN1CCN(c2ccccc2F)CC1 | -0.528
N#Cc1nc(-c2cccs2)oc1NCc1ccc(Cl)cc1 | -0.526
COc1ccccc1C(=O)NCCc1nc2ccccc2n1C | -0.294
COc1ccc2c(c1)C(=NO)c1cc(OC)ccc1-2 | -0.373
O=C(N1CCCCCC1)N1CCN(S(=O)(=O)N2CCCCC2)CC1 | -0.579
Cn1c(=O)cc(SCC(=O)N2CCOCC2)c2ccc(Cl)cc21 | -0.557
